Protein target, amino acids: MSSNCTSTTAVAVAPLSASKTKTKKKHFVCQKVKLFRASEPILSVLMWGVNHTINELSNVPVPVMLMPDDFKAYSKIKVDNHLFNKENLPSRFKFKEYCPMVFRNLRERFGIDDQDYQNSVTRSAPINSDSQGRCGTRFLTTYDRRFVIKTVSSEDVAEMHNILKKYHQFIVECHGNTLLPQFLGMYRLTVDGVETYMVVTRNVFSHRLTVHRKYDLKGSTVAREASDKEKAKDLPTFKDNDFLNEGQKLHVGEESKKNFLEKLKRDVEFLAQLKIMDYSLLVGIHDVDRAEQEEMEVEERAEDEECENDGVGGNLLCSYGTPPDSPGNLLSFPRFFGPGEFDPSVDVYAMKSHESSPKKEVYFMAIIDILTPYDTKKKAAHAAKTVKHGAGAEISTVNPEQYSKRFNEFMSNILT
pIC50: −log10 of the molar value.
PROPERTY LABEL: pIC50

## Input Look up and report measured pIC50 for this entry: "COc1nc(Nc2cncc(N3CCC(N(C)C)CC3)c2)ncc1-c1ccc(-c2nnccc2C)cc1"
## Output 7.00 to 8.00

## Input Look up and report measured pIC50 for this entry: "COc1nc(Nc2cncc(OCCN3CCC(F)(F)C3)c2)ncc1-c1ccc(N2CCCC2=O)cc1"
## Output 7.00 to 8.00

====

Target chain: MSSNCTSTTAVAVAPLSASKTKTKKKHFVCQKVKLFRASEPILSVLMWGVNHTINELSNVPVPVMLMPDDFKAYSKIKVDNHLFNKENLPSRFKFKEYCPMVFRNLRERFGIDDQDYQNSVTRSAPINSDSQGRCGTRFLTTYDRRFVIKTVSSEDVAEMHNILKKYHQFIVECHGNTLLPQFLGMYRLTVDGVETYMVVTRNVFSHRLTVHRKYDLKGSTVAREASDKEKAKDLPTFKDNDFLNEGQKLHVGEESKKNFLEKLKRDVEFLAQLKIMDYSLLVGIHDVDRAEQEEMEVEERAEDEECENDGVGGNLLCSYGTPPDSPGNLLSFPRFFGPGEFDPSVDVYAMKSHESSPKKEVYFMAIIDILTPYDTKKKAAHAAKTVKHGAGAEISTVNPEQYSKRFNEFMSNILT
PROPERTY LABEL: IC50

Guide cases for IC50, answers given:
CCN(CC)CCOC(=O)N1CCOc2ncc(Nc3ncc(-c4ccc(N5CCCC5=O)cc4)cn3)cc21 : 10 to 100 nM
COc1nc(Nc2cncc(N3CC[C@H](N(C)C)C3)c2)ncc1-c1ccc(N2CCCC2=O)cc1 : 10 to 100 nM

## Input Look up and report measured IC50 for this entry: "COc1nc(Nc2cncc(N(C)CCC(=O)N3CCNCC3)c2)ncc1-c1ccc(N2CCCC2=O)cc1"
## Output 10 to 100 nM

## Input Look up and report measured IC50 for this entry: "CN(c1nc(Nc2cnc3c(c2)N2C(=O)CC[C@H]2CO3)ncc1-c1ccc(N2CCCC2=O)cc1)[C@@H]1CCOC1"
## Output 1 to 10 nM

## Input Look up and report measured IC50 for this entry: "Cc1cnnn1-c1ccc(-c2cnc(Nc3cnc4c(c3)N(C(=O)OCCN(C)C)CCO4)nc2)cc1"
## Output 1 to 10 nM

## Input Look up and report measured IC50 for this entry: "O=C1CCCN1c1ccc(-c2cnc(Nc3cnc4c(c3)N3C(=O)CC[C@H]3CO4)nc2CC2(O)COC2)cc1F"
## Output 10 to 100 nM

====

Below, each entry is listed with its recorded IC50.
Target: PIP4K2 B (Homo sapiens, UniProt P78356)
Sequence (P78356 1-416): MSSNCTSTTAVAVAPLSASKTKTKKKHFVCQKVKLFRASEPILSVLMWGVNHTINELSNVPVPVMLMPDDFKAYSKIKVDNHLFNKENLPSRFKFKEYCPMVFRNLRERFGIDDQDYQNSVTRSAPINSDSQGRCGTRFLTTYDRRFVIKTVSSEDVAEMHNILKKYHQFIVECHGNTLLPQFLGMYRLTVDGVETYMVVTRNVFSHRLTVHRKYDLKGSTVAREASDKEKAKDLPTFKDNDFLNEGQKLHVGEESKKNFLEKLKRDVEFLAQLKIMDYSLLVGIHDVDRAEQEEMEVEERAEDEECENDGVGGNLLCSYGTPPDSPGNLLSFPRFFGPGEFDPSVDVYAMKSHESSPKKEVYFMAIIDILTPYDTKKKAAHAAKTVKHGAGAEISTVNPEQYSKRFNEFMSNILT

Guide cases for IC50, answers given:
O=C(O)CNc1nc(Nc2cnc3c(c2)N2C(=O)CC[C@H]2CO3)ncc1-c1ccc(N2CCCC2=O)cc1 [Compound 1] : ≤ 1 nM
CCN(CC)CCN1CCOc2ncc(Nc3ncc(-c4ccc(N5CCCC5=O)cc4)c(OC)n3)cc21 [Compound 26] : 100 to 1000 nM
COc1nc(Nc2cncc(OCCN3CCC(F)(F)C3)c2)ncc1-c1ccc(-c2nnccc2C)cc1 [Compound 40] : 10 to 100 nM

## Input Look up and report measured IC50 for this entry: COc1nc(Nc2cncc(N3CC[C@@H](N(C)C)C3)c2)ncc1-c1ccc(-c2nnccc2C)cc1 [Compound 34]
## Output 10 to 100 nM

====

molecular target: PIP4K2 B (Homo sapiens, UniProt P78356); construct: made in house; host or cells: E. coli; assay: Kinase Assay-PIP4K2 B (Transcreener FI); type: biochemical
pIC50: −log10 of the molar value.
Below, each entry is listed with its recorded pIC50.

Guide cases for pIC50, answers given:
O=C1CCCN1c1ccc(-c2cnc(Nc3cnc4c(c3)N3C(=O)CC[C@H]3CO4)nc2OCCN2CCOCC2)cc1 : 8.00 to 9.00
CP(C)(=O)c1ccc(-c2ccc(Nc3cnc4c(c3)N3C(=O)CC[C@H]3CO4)nc2)cc1 : < 6.00

## Input Supply pIC50 measured with PIP4K2 B (Homo sapiens, UniProt P78356) for CN(c1nc(Nc2cnc3c(c2)N2C(=O)CC[C@H]2CO3)ncc1-c1ccc(N2CCCC2=O)cc1)C1CCOC1 (some centres unmarked) .
## Output 8.00 to 9.00

## Input Supply pIC50 measured with PIP4K2 B (Homo sapiens, UniProt P78356) for "CCN(CC)CCOC(=O)N1CCOc2ncc(Nc3ncc(-c4ccc(N5C(=O)CC[C@H]5C)cc4)cn3)cc21" .
## Output 7.00 to 8.00

## Input Supply pIC50 measured with PIP4K2 B (Homo sapiens, UniProt P78356) for "COc1nc(Nc2cncc(N3CCC(N(C)C)CC3)c2)ncc1-c1ccc(N2CCCC2=O)cc1" .
## Output 7.00 to 8.00
